Target: Broad substrate specificity ATP-binding cassette transporter ABCG2 (Homo sapiens)
Sequence (Q9UNQ0 whole entry): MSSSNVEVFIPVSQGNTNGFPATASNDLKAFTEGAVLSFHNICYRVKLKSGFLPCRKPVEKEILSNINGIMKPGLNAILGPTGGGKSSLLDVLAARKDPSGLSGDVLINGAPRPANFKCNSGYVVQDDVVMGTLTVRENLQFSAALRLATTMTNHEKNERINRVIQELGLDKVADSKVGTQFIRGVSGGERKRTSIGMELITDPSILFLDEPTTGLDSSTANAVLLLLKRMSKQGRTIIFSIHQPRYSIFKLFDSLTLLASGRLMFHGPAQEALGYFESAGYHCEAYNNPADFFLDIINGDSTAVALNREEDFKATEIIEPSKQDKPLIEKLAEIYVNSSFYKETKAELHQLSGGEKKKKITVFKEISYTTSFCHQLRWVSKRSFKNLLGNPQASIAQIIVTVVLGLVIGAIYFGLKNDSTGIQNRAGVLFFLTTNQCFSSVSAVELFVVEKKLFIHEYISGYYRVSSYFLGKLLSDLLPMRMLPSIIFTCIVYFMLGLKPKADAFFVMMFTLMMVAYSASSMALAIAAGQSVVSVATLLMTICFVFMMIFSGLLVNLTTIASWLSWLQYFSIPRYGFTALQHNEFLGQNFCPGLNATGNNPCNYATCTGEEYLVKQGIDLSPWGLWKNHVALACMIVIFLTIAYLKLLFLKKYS
Test: Inhibition of ABCG2 (unknown origin) expressed in dog MDCK-II-BCRP cells assessed as increase in Hoechst 33342 fluorescence intensity using Hoechst 33342 as tracer preincubated for 30 mins followed by Hoechst 33342 addition and measured after 120 mins by fluorescence based analysis
Format: cell-based
valueType: pIC50
Bear in mind: pIC50 is minus log10 of a mol/L concentration; give just that figure.

Known pIC50 results, listed for orientation:
sampleSmiles: COc1cccc(NC(=O)c2nn(CC(=O)Nc3ccccc3OC)c3ccccc23)c1
testedTarget: Broad substrate specificity ATP-binding cassette transporter ABCG2 (Homo sapiens)
pIC50: 5.20

sampleSmiles: O=C(Cn1nc(C(=O)Nc2cccnc2)c2ccccc21)Nc1ccc(Cl)cc1
testedTarget: Broad substrate specificity ATP-binding cassette transporter ABCG2 (Homo sapiens)
pIC50: 5.18

input: pIC50 lookup needed for O=C(Cn1nc(C(=O)Nc2ccccn2)c2ccccc21)Nc1cc(Cl)ccc1Cl , thanks.
output: 5.99

input: pIC50 lookup needed for COc1cccc(NC(=O)Cn2nc(C(=O)Nc3cccc(OC)c3)c3ccccc32)c1 , thanks.
output: 5.68

* * *

Target: Multidrug resistance-associated protein 1 (Homo sapiens, UniProt P33527)
Sequence (P33527 whole entry): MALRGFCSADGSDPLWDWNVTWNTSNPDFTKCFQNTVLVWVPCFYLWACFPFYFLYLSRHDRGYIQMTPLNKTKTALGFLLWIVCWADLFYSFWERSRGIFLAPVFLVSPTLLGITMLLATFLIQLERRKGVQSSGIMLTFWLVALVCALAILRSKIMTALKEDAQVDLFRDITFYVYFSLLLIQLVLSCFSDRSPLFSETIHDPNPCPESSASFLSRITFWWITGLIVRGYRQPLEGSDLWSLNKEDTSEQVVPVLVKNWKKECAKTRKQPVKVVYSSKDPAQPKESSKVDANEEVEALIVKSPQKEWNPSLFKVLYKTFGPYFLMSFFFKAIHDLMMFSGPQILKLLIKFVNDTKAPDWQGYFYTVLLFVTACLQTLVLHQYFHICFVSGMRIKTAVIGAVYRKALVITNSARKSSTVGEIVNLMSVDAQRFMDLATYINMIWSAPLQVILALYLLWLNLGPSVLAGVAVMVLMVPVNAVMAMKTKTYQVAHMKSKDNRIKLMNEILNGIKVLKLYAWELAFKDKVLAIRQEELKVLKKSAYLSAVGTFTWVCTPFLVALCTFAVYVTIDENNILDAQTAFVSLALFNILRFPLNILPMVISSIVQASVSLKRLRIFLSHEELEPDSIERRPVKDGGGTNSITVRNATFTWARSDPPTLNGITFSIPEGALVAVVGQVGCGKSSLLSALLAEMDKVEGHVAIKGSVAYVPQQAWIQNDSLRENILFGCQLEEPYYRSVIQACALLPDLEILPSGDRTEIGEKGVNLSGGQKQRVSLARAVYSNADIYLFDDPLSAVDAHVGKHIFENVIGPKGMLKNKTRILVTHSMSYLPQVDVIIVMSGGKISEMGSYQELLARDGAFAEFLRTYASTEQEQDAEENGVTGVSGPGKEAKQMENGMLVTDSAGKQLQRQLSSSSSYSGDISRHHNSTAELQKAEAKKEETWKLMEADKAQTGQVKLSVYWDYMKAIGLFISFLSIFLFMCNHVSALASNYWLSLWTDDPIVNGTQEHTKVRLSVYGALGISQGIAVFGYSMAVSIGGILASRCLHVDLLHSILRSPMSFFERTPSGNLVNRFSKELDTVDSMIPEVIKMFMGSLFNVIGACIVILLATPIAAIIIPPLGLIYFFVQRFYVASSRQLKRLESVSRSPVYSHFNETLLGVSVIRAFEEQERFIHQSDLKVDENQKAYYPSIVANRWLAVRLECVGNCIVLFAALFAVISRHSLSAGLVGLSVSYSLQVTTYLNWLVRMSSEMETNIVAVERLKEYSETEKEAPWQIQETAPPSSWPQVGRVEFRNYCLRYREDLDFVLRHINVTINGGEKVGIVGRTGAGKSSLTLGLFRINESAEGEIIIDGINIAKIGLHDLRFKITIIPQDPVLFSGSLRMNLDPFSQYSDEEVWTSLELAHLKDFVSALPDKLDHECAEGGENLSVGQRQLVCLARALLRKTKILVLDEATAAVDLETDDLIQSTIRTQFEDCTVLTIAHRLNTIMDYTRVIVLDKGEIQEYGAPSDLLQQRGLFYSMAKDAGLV
Assay: Inhibition of ABCC1 in human NCI-H69AR cells assessed as increase in rhodamine123 fluorescence intensity using rhodamine123 as tracer preincubated for 30 mins followed by rhodamine 123 addition and measured for 180 mins by flow cytometry
Type: cell-based
Conditions: read-out: IC50
Each record here notes measured IC50.
Numeric only. Scale: µM

Known IC50 results, listed for orientation:
sampleSmiles: COc1cccc(NC(=O)Cn2nc(C(=O)Nc3cccc(OC)c3)c3ccccc32)c1
IC50 [µM]: 2.66

sampleSmiles: O=C(Cn1nc(C(=O)Nc2cccnc2)c2ccccc21)Nc1ccc(Cl)cc1
IC50 [µM]: 2.9

Let us move to another entry and its IC50.
input: IC50 lookup needed for COc1cccc(NC(=O)c2nn(CC(=O)Nc3ccccc3OC)c3ccccc23)c1 , thanks.
output: 3.79

Every entry's value here was drawn from ChEMBL document CHEMBL6109064.
